system: Candida albicans; settings: Concentration 32 ug.mL-1; ASSAY_TEST Inhibition of Fungal Growth; detection method Absorption (OD530)
Description: Antifungal activity against Candida albicans ATCC 90028 (CO-ADD:FG_001); MIC in YNB media using NBS plates, by OD630
Potency and affinity values are given separately.
assay.endpoint: Inhibition (%)
Write the number in % without appending the unit.

Look over these answered cases.
- molecule: "CCC(C)NC(=O)c1ccc2c(=O)n(CCC(C)C)c3nn(CC#N)c(=O)n3c2c1 (stereo not drawn)"
  Inhibition [%]: 0.65
- molecule: "CC(=O)c1cccc(NC(=O)CSc2nc3ccccc3n3c(C)nnc23)c1"
  Inhibition [%]: 5.91
- molecule: "CC(C)Cn1c(=O)c2ccc(C(=O)NC3CCCCC3)cc2n2c(=O)n(CC#N)nc12"
  Inhibition [%]: -0.09
- molecule: "Cc1cccc(Oc2nc3ccccc3n3c(=O)n(CC(=O)Nc4cccc(C#N)c4)nc23)c1C"
  Inhibition [%]: 5.6
- molecule: "CCc1ccccc1NC(=O)CSc1nnc2c(=O)n(-c3ccccc3)ccn12"
  Inhibition [%]: -0.14

Prompt: # query: Inhibition of entry CCc1ccccc1NC(=O)Cn1nc2n(CCC(C)C)c(=O)c3sccc3n2c1=O
Response: 8.44

Prompt: Can you look up the measured Inhibition of CCOc1ccc(-n2ccn3c(SCC(=O)Nc4ccc(Cl)cc4)nnc3c2=O)cc1 for me?
Response: 3.69

Prompt: What value of Inhibition has been recorded for this entry: Cc1cccc(N(CC(=O)OC(C)(C)C)S(=O)(=O)c2cccn3c(C)nnc23)c1
Response: 2.37

Prompt: Quick check: Inhibition of Cc1ccc(NC(=O)CSc2nnc3ccc(C(=O)Nc4cccc(F)c4)cn23)c(C)c1 ?
Response: 9.81

Prompt: Entry under review: Cc1ccc(-c2ccc3nn(Cc4ccc5c(c4)OCO5)c(=O)n3n2)cc1C . Reported Inhibition?
Response: 1.11
